Reported melting point by item:
measured_attribute: melting point

[[record]]
compound = "C=C1CC(c2cccc(OC(=O)c3ccccc3)c2)OC1=O (centres unmarked)"
measured_attribute = "melting point"
result = "204.5 to 204.8 °C"

[[record]]
compound = "C=C1CC(c2ccccc2OC(=O)c2ccc(Cl)cc2)OC1=O (centres unmarked)"
measured_attribute = "melting point"
result = "208.7 to 209.3 °C"

[[record]]
compound = "C=C1CC(c2ccccc2OC(=O)c2ccccc2OC)OC1=O (centres unmarked)"
measured_attribute = "melting point"
result = "177.8 to 178.6 °C"

[[record]]
compound = "C=C1CC(c2ccc(OC(=O)c3ccc(OC)cc3)cc2)OC1=O (centres unmarked)"
measured_attribute = "melting point"
result = "184.5 to 185.2 °C"

[[record]]
compound = "C=C1CC(c2ccc(OC(=O)c3cccc(Br)c3)cc2)OC1=O (centres unmarked)"
measured_attribute = "melting point"
result = "176.5 to 176.8 °C"


###

// reported IC50 per item
Tested on: C. lagenarium
method_summary: Spore germination assay, fungicidal activity against C. lagenarium
Type: cell-based, Colletotrichum lagenarium
test_context: Colletotrichum orbiculare; Table 2; fungicidal activity against C. lagenarium used for QSAR; read-out: pIC50 (converted)
measured_attribute: IC50

[[record]]
compound = "C=C1CC(c2cccc(OC(=O)c3ccccc3C)c2)OC1=O (centres unmarked) [Compound 6g]"
measured_attribute = "IC50"
result = "159 µM"

[[record]]
compound = "C=C1CC(c2ccc(OC(=O)c3cccc(C)c3)cc2)OC1=O (centres unmarked) [Compound 4k]"
measured_attribute = "IC50"
result = "178 µM"

[[record]]
compound = "C=C1CC(c2ccc(OC(=O)c3ccc(Br)cc3)cc2)OC1=O (centres unmarked) [Compound 4f]"
measured_attribute = "IC50"
result = "14.4 µM"

[[record]]
compound = "C=C1CC(c2cccc(OC(=O)CC)c2)OC1=O (centres unmarked) [Compound 6m]"
measured_attribute = "IC50"
result = "173 µM"

[[record]]
compound = "C=C1CC(c2ccc(OC(=O)c3ccccc3Br)cc2)OC1=O (centres unmarked) [Compound 4d]"
measured_attribute = "IC50"
result = "15.6 µM"

[[record]]
compound = "C=C1CC(c2cccc(OCCC)c2)OC1=O (centres unmarked) [Compound 6p]"
measured_attribute = "IC50"
result = "266 µM"

[[record]]
compound = "C=C1CC(c2cccc(OC(=O)c3ccccc3Br)c2)OC1=O (centres unmarked) [Compound 6c]"
measured_attribute = "IC50"
result = "10.3 µM"

[[record]]
compound = "C=C1CC(c2cccc(OC(=O)c3cccc(C)c3)c2)OC1=O (centres unmarked) [Compound 6h]"
measured_attribute = "IC50"
result = "126 µM"

[[record]]
compound = "C=C1CC(c2cccc(OC(=O)c3ccc(Br)cc3)c2)OC1=O (centres unmarked) [Compound 6e]"
measured_attribute = "IC50"
result = "9.71 µM"

[[record]]
compound = "C=C1CC(c2ccccc2OC(=O)c2ccc(Br)cc2)OC1=O (centres unmarked) [Compound 5e]"
measured_attribute = "IC50"
result = "15.3 µM"

[[record]]
compound = "C=C1CC(c2cccc(OC(=O)c3ccccc3OC)c2)OC1=O (centres unmarked) [Compound 6j]"
measured_attribute = "IC50"
result = "162 µM"

[[record]]
compound = "C=C1CC(c2cccc(OC(=O)c3cccc(Br)c3)c2)OC1=O (centres unmarked) [Compound 6d]"
measured_attribute = "IC50"
result = "8.17 µM"

[[record]]
compound = "C=C1CC(c2ccc(OC(=O)c3ccc(C#N)cc3)cc2)OC1=O (centres unmarked) [Compound 4h]"
measured_attribute = "IC50"
result = "65.6 µM"

[[record]]
compound = "C=C1CC(c2ccccc2OC(=O)c2ccccc2)OC1=O (centres unmarked) [Compound 5g]"
measured_attribute = "IC50"
result = "171 µM"

[[record]]
compound = "C=C1CC(c2ccc(OC(=O)c3ccccc3Cl)cc2)OC1=O (centres unmarked) [Compound 4a]"
measured_attribute = "IC50"
result = "14 µM"

[[record]]
compound = "C=C1CC(c2ccc(OC(=O)c3ccc(Cl)cc3)cc2)OC1=O (centres unmarked) [Compound 4c]"
measured_attribute = "IC50"
result = "12.7 µM"

[[record]]
compound = "C=C1CC(c2ccc(OC(=O)CC)cc2)OC1=O (centres unmarked) [Compound 4p]"
measured_attribute = "IC50"
result = "207 µM"

[[record]]
compound = "C=C1CC(c2ccc(OC(=O)c3ccccc3C)cc2)OC1=O (centres unmarked) [Compound 4j]"
measured_attribute = "IC50"
result = "192 µM"

[[record]]
compound = "C=C1CC(c2ccccc2OC(=O)c2cccc(OC)c2)OC1=O (centres unmarked) [Compound 5l]"
measured_attribute = "IC50"
result = "284 µM"

[[record]]
compound = "C=C1CC(c2cccc(OC(=O)c3cccc(Cl)c3)c2)OC1=O (centres unmarked) [Compound 6a]"
measured_attribute = "IC50"
result = "7.67 µM"

